Answer each item with its documented growth inhibition.
- Method Description: NCI Yeast Anticancer Drug Screen. Data for the mlh1 rad18 strain (AID 175)
- Test Conditions: S. cerevisiae mlh1 rad18 strain growth inhibition; at 50.0 µM; active compounds read high
The panel holds about 79,000 compounds, 15% with a hit somewhere; the sample as a whole holds those more often.
Give bare numbers, in %.

1) CCn1cc2c(=O)n3ncn(-c4ccc(Br)cc4)c3nc2n1 = -12.2
2) CCOC(=O)C(C)CC(C)C(=O)OCC (stereo unspecified) = 2.5
3) Cc1ccc2[nH]c(C)c(C(=O)c3ccncc3)c2c1 = -9.45
4) C[C@@]12CCC(=O)c3coc(c31)C(=O)c1cc3c(cc12)C(=O)C=CC3=O = 91.9
5) CCCC(C(O)CC)[N+](=O)[O-] (stereo unspecified) = 21.6

Below: the item to evaluate.
Reported growth inhibition for CO/C(Cc1cc(O)cc(O)c1)=N\N was -4.1
